These measurements were taken from the supplement of paper PMC7411054.

- System: HepG2-ACTB-RAB5A
- MEASUREMENT_PROTOCOL: lowest phenotypically active concentration; higher = less potent
- TEST_CONDITIONS: treatment time: 24 h
Structures can show the parent of a compound that is named as a salt.
Reported lowest phenotypically active concentration is given for each of the following molecules.
MEASURED_QUANTITY: lowest phenotypically active concentration

1. NC(=O)Nc1cc(-c2cccc(F)c2)sc1C(=O)N[C@H]1CCCNC1 [AZD 7762 hydrochloride]	≤ 0.3 µM
2. COc1ccc(N(C)c2nc(C)nc3ccccc23)cc1 [MPC 6827 hydrochloride]	≤ 0.3 µM
3. CC[C@H](C)[C@H](NC(=O)OCc1ccccc1)C(=O)N[C@@H](CCC(=O)OC(C)(C)C)C(=O)N[C@@H](C)C(=O)N[C@H](C=O)CC(C)C	≤ 0.3 µM
4. COc1c(C)cnc(Cn2cc(C#CCC(C)(C)O)c3c(Cl)nc(N)nc32)c1C	≤ 0.3 µM
5. COc1ccc(C[C@H](N)C(=O)N[C@H]2[C@@H](O)[C@H](n3cnc4c(N(C)C)ncnc43)O[C@@H]2CO)cc1 [Puromycin dihydrochloride]	≤ 0.3 µM
